# protocol-description: Selectivity ratio of IC50 for PDE3 to IC50 for mouse PDE10A7
Can you tell me Ratio IC50 for the items I'm about to list?
Numbers only.

- test-smiles: "COc1cc2nncc(-c3cnc(N4CCC(C(C)(C)O)CC4)c(C)c3)c2cc1OC"
  Ratio IC50: 347

Could you report Ratio IC50 for every entry in the following list?
1. COc1cc2nncc(-c3cnc(N4CCC(C(C)(C)O)CC4)c(C)c3)c2cc1C
2. COc1cc2c(-c3cnc(N4CCC(C(C)(C)O)CC4)c(C)c3)cnnc2cc1OC(F)F
3. COc1cc2nncc(-c3cnc(N4CCC(C(C)(C)O)CC4)c(C(F)F)c3)c2cc1OC
4. COc1cc2nncc(-c3cnc(N4CCC(C(C)(C)O)CC4)c(C4CC4)c3)c2cc1OC
5. COc1cc2nncc(-c3cnc(N4CCC(C(C)(C)O)CC4)c(Cl)c3)c2cc1OC

Response given:
1: 980; 2: 231; 3: 5520; 4: 2290; 5: 357

Challenge: If you can, please state the reported Ratio IC50 value of "COc1cc2nncc(-c3cnc(N4CCC(C(C)(C)O)CC4)c(C)c3)c2cc1OC1CC1" .
Response given: 4360

* * *

# protocol-description: Oral bioavailability in rat at 5 mg/kg
# Type: ADME, organism-based
# measurement-context: in vivo
Hi there, I'd appreciate the recorded bioavailability for every entry that follows.
Give bare numbers, in %.

Consider the worked cases shown below.
- test-smiles: "COc1cc2nncc(-c3cnc(N4CCC(C(C)(C)O)CC4)c(C)c3)c2cc1OC"
  bioavailability [%]: 60
- test-smiles: "COc1cc2nncc(-c3cnc(N4CCC(C(C)(C)O)CC4)c(C(F)F)c3)c2cc1OC"
  bioavailability [%]: 46

Challenge: State the recorded bioavailability for this entry: "COc1cc2nncc(-c3cnc(N4CCC(C(C)(C)O)CC4)c(C)c3)c2cc1OC1CC1"
Response given: 32

* * *

# protocol-description: Inhibition of mouse PDE10A7 using fluorescein labeled CAMP as substrate incubated for 30 mins prior to substrate addition measured after 30 mins by fluorescence polarization assay
endpoint: pIC50
Numbers only, as −log10 of the molar value.

Worked cases, answers included:
- test-smiles: "CCn1cc(-c2cnc(N3CCC(C(C)(C)O)CC3)c(C)c2)c2cc(OC)c(OC)cc2c1=O"
  pIC50: 7.86
- test-smiles: "COc1cc2nncc(-c3cnc(N4CCC(C(C)(C)O)CC4)c(C)c3)c2cc1C"
  pIC50: 7.59
- test-smiles: "COc1cc2nncc(-c3cnc(N4CCC(C(C)(C)O)CC4)c(C)c3)c2cc1N(C)C"
  pIC50: 5.35
- test-smiles: "COc1cc2nncc(-c3cnc(N4CCC(C(C)(C)O)CC4)c(C4CC4)c3)c2cc1OC"
  pIC50: 8.89
- test-smiles: "COc1cc2c(-c3cnc(N4CCC(C(C)(C)O)CC4)c(C)c3)cnnc2cc1OC(F)F"
  pIC50: 7.16
- test-smiles: "COc1cc2cncc(-c3cnc(N4CCC(C(C)(C)O)CC4)c(C)c3)c2cc1OC"
  pIC50: 7.87

Please go through the list and note pIC50 for each compound.
1. CCOc1cc2c(-c3cnc(N4CCC(C(C)(C)O)CC4)c(C)c3)cnnc2cc1C
2. COc1cc2nncc(-c3ccc(NC(C)C)nc3)c2cc1OC
3. COc1cc2nncc(-c3cnc(N4CCC(C(C)(C)O)CC4)c(C(F)F)c3)c2cc1OC
4. COc1cc2ccnc(-c3ccc(NC(C)C)nc3)c2cc1OC

Response given:
1: 7.39; 2: 8.12; 3: 8.92; 4: 7.33

* * *

# protocol-description: Clearance in rat at 1 mg/kg, iv and 5 mg/kg, po
# Type: ADME, organism-based
# measurement-context: in vivo
endpoint: clearance (mL/min/kg)
Numbers only, in mL/min/kg.

Challenge: Could you tell me which clearance is on file for "COc1cc2nncc(-c3cnc(N4CCC(C(C)(C)O)CC4)c(C)c3)c2cc1OC1CC1" ?
Response given: 15.5

* * *

# protocol-description: Half life in rat at 1 mg/kg, iv and 5 mg/kg, po
# Type: ADME, organism-based
# measurement-context: in vivo
endpoint: half-life

// solved cases for half-life follow
- test-smiles: "COc1cc2nncc(-c3cnc(N4CCC(C(C)(C)O)CC4)c(C(F)F)c3)c2cc1OC"
  endpoint: "half-life"
  recorded-result: "2.08 h"
- test-smiles: "COc1cc2nncc(-c3cnc(N4CCC(C(C)(C)O)CC4)c(C)c3)c2cc1OC1CC1"
  endpoint: "half-life"
  recorded-result: "1.48 h"

Proceeding to the next compound to report its half-life.
Challenge: Suppose we examine the compound "COc1cc2nncc(-c3cnc(N4CCC(C(C)(C)O)CC4)c(C)c3)c2cc1OC" ; what half-life value has been reported?
Response given: 1.54 h

* * *

# protocol-description: Selectivity ratio of IC50 for PDE3 to IC50 for mouse PDE10A7
endpoint: Ratio IC50

Use the examples below as a reference point.
- test-smiles: "COc1cc2c(-c3cnc(N4CCC(C(C)(C)O)CC4)c(C)c3)cnnc2cc1F"
  Ratio IC50: "> 75"
- test-smiles: "COc1cc2c(-c3cnc(N4CCC(C(C)(C)O)CC4)c(C)c3)cnnc2cc1OCC1CC1"
  Ratio IC50: "> 523"

API: the following record is the query input.
Challenge: # lookup: Ratio IC50 of "CCOc1cc2c(-c3cnc(N4CCC(C(C)(C)O)CC4)c(C)c3)cnnc2cc1C"
Response given: > 244

* * *

# protocol-description: Inhibition of mouse PDE10A7 using fluorescein labeled CAMP as substrate incubated for 30 mins prior to substrate addition measured after 30 mins by fluorescence polarization assay
Can you tell me pIC50 for the items I'm about to list?
Give bare numbers, as −log10 of the molar value.

Sample answers from the record:
- test-smiles: "COc1cc2nncc(-c3cnc(N4CCC(C(C)(C)O)CC4)c(Cl)c3)c2cc1OC"
  pIC50: 8.20
- test-smiles: "COc1cc2nccc(-c3cnc(N4CCC(C(C)(C)O)CC4)c(C)c3)c2cc1OC"
  pIC50: 7.92
- test-smiles: "COc1cc2c(-c3cnc(N4CCC(C(C)(C)O)CC4)c(C)c3)cnnc2cc1OCC1CC1"
  pIC50: 7.72
- test-smiles: "COc1cc2snc(-c3ccc(NC(C)C)nc3)c2cc1OC"
  pIC50: 5.96
- test-smiles: "COc1cc2c(-c3cnc(N4CCC(C(C)(C)O)CC4)c(C)c3)cnnc2cc1F"
  pIC50: 6.88

Challenge: Quick check: pIC50 of "COc1cc2nncc(-c3cnc(N4CCC(C(C)(C)O)CC4)c(C)c3)c2cc1OC1CC1" ?
Response given: 8.39
